Molecular target: μ receptor (Rattus norvegicus)
Construct: Rat membrane synaptosome preparations (P2 fraction) were prepared as detailed previously; from tissue; host or cells: rat synaptosomal membranes (P2 fraction)
Sequence (P33535 whole entry): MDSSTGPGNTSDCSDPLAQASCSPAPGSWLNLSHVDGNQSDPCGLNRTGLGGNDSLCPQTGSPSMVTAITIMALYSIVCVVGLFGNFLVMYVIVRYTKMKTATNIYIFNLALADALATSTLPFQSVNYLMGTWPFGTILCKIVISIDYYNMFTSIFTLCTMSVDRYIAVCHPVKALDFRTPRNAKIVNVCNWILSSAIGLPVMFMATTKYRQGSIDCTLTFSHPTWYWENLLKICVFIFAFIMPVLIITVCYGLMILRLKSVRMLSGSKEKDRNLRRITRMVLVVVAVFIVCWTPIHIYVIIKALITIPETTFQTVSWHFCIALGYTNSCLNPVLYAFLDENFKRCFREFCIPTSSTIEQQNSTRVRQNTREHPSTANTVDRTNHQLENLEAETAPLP
Assay: μ receptor binding, rat membrane synaptosomes, [3H]DAGO
Conditions: rat synaptosomes (P2), mean ± SEM
Non-standard residues stand in square brackets, D forms with d. Residues, ends and D or L forms follow the SMILES beside them. Dmt = Cc1cc(O)cc(C)c1C[C@H](N)C(=O)O; Tic = O=C(O)[C@@H]1Cc2ccccc2CN1; dTic = O=C(O)[C@H]1Cc2ccccc2CN1
readoutKind: Ki
Please format your answer as a value with the unit trailing.

Consider the worked cases shown below.
> print(dat)
                                   molecule    result
1  N[C@@H](Cc1ccc(O)cc1)C(=O)N1Cc2ccccc2C[C@H]1CO [Peptide 16, Tyr-Tic-CH2 OH, reference compound]  11000 nM
2  Cc1cc(O)cc(C)c1C[C@H](N)C(=O)N1Cc2ccccc2C[C@H]1C(=O)O [Peptide 1, Dmt-Tic-OH] (H-[Dmt]-[Tic]-OH; N-terminus assumed)   3320 nM
3  N[C@@H](Cc1ccc(O)cc1)C(=O)N1Cc2ccccc2C[C@@H]1C(=O)O [Peptide 14, Tyr-D-Tic-OH, reference compound] (H-Tyr-[dTic]-OH)  26300 nM

Challenge: State Ki on μ receptor (Rattus norvegicus). Entry: O=C1N[C@@H](Cc2ccc(O)cc2)C(=O)N2Cc3ccccc3C[C@@H]12 [Peptide 17, c(Tyr-Tic), reference compound]
Response given: 51500 nM

====

Target: δ receptor (Rattus norvegicus)
Construct: Rat membrane synaptosome preparations (P2 fraction) were prepared as detailed previously; from tissue; host or cells: rat synaptosomal membranes (P2 fraction)
Sequence (P33533 whole entry): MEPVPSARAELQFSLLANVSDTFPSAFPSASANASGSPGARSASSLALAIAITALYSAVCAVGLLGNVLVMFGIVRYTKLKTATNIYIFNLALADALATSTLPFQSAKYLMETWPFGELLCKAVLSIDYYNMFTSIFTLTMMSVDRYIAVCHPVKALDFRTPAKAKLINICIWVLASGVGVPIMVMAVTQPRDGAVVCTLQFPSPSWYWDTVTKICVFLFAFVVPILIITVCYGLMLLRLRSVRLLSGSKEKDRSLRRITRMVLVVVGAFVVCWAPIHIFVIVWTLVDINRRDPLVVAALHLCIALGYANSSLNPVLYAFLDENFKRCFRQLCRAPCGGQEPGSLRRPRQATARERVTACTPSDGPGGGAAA
Assay: Multi-site (one- vs two-site) δ receptor binding analysis
Settings: two-site δ receptor fit
Method: Rat membrane synaptosome preparations (P2 fraction) were prepared as detailed previously, which included a preincubation step to reduce the presence of endogenous ligands and binding of G proteins (33,40). […] The filters were dried at 70° C. and the radioactivity determined after an overnight incubation period in CytoScint to maximize the radioactivity detected and reduce variability between samples. […]
Non-standard residues stand in square brackets, D forms with d. Residues, ends and D or L forms follow the SMILES beside them. Dmt = Cc1cc(O)cc(C)c1C[C@H](N)C(=O)O; Tic = O=C(O)[C@@H]1Cc2ccccc2CN1
readoutKind: Percent low-affinity sites (%)
Answers are plain numbers, in %.

// below: answered compounds
> print(dat)
                                   compound                     assaysystem  unitofmeasure  quantitativeresult
1  Cc1cc(O)cc(C)c1C[C@H](N)C(=O)N1Cc2ccccc2C[C@H]1CO [Peptide 5, Dmt-Tic--CH2 OH]  δ receptor (Rattus norvegicus)              %                20.9
2  Cc1cc(O)cc(C)c1C[C@H](N)C(=O)N1Cc2ccccc2C[C@H]1C(=O)O [Peptide 1, Dmt-Tic-OH] (H-[Dmt]-[Tic]-OH; N-terminus assumed)  δ receptor (Rattus norvegicus)              %                30.7
3  Cc1cc(O)cc(C)c1C[C@H](N)C(=O)N1Cc2ccccc2C[C@H]1C(N)=O [Peptide 2, Dmt-Tic-NH2] (H-[Dmt]-[Tic]-NH2; N-terminus assumed)  δ receptor (Rattus norvegicus)              %                 6.2

Challenge: Give the measured Percent low-affinity sites for Cc1cc(O)cc(C)c1C[C@@H]1NC(=O)[C@@H]2Cc3ccccc3CN2C1=O [Peptide 6, c(Dmt-Tic)]
Response given: 86.8
